# assay_remarks: AUC (0 to 12.5 hrs) in healthy adult human subjects after consumption of 44 mg equivalent of piperine in form of pepper in soup (melahu rasam) by HPLC method
# Type: ADME, organism-based
# Design: dose 44 mg, time < 12.5 hr
# condition_summary: in vivo, po

{"compound": "O=C(/C=C/C=C/c1ccc2c(c1)OCO2)N1CCCCC1 [PIPERINE]", "unit_tag": "ng·h/mL", "AUC(0-t) at 12.5 h": 3370}

###

# assay_remarks: AUC (0 to 10 hrs) in normal Swiss albino mouse at 10 mg, po by HPLC method
# Type: ADME, organism-based
# Set-up: time < 10 hr, dose 10 mg, route oral
# condition_summary: in vivo

{"compound": "O=C1N=C([O-])NC1(c1ccccc1)c1ccccc1.[Na+] [PHENYTOIN SODIUM]", "AUC(0-t) at 10 h / µg·h/mL": 716}

###

# assay_remarks: AUC (0 to 48 hrs) in healthy adult human subjects at 300 mg, po dosed 30 minutes after ingestion of soup (melahu rasam) with black pepper by HPLC method
# Assay type: ADME, organism-based
# Parameters: time < 48 hr, dose 300 mg, route oral
# condition_summary: in vivo
experimental_readout: AUC(0-t) at 48 h (µg·h/mL)

{"compound": "O=C1N=C([O-])NC1(c1ccccc1)c1ccccc1.[Na+] [PHENYTOIN SODIUM]", "experimental_readout": "AUC(0-t) at 48 h", "endpoint_value": 153}

These measurements were taken from ChEMBL document CHEMBL3785008.
